Experiment: in vitro
Type: cell-based
Settings: human
measured attribute: viability at 300 µM (%)

- Nc1c2c(nc3ccccc13)CCCC2 [Tacrine, tacrine, reference compound]: 42.4

----------
Experiment: in vitro
Format: cell-based
Settings: human
measured attribute: viability at 100 µM (%)

- Nc1c2c(nc3ccccc13)CCCC2 [Tacrine, tacrine, reference compound]: 102

----------
Test: in vitro
Format: cell-based
Conditions: human
measured attribute: viability at 30 µM (%)

* Nc1c2c(nc3ccccc13)CCCC2 [Tacrine, tacrine, reference compound] | 110

----------
Molecular target: hAChE (Homo sapiens, UniProt P22303)
Construct: 10 µl of cholinesterase obtained from human erythrocyte hemolyzate, out of blood samples; from tissue; host or cells: human erythrocyte hemolysate from blood samples
Sequence (P22303 32-617 isoform P22303-2 limits assumed): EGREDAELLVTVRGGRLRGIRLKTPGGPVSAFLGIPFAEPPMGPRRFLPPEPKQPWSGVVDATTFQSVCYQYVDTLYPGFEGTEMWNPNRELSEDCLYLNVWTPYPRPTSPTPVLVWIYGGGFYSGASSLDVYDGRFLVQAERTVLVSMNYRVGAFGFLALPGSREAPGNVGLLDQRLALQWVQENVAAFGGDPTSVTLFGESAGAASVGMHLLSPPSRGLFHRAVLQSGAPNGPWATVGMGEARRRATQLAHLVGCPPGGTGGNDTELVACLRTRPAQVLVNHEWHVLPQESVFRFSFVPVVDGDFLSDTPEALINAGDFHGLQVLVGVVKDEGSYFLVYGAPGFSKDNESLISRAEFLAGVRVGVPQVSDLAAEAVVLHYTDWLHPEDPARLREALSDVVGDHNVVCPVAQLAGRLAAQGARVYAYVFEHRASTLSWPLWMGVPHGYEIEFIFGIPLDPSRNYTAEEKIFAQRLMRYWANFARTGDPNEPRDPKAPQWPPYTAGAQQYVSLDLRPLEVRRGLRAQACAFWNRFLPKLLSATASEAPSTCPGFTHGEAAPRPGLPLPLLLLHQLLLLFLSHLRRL
Experiment: biochemical
Conditions: mean ± SEM
measured attribute: IC50

- Cc1ccc(C2c3oc(CO)cc(=O)c3Oc3nc4c(c(N)c32)CCCC4)cc1 (centres unmarked): 13.7 µM
- COc1cccc(C2c3oc(CO)cc(=O)c3Oc3nc4c(c(N)c32)CCCC4)c1 (centres unmarked): 4.52 µM

----------
Assay: in vitro
Format: cell-based
Settings: human, HepG2 cells; 10 µM; percent of cell viability vs DMSO-treated control; read-out: HepG2 cell viability
Method: The culture medium was refreshed after 24 h of incubation and 100 µl of six different concentrations (1–1000 µM) of test compounds or DMSO (0.1%) were then added. The cell viability was monitored by colourimetric assay with 3-[4,5-dimethylthiazol-2-yl]-2,5-diphenyl-tetrazolium bromide (MTT). In this sense, all new KTs were submitted to the in vitro cell viability test (MTT assay) using human hepatocellular carcinoma cell line (HepG2)[26], as the most accepted probe to evaluate hepatotoxic effects. […]
measured attribute: viability at 10 µM (%)

- Nc1c2c(nc3c1C(c1cccc(Br)c1)c1oc(CO)cc(=O)c1O3)CCCC2 (stereo not drawn): 94.9
- COc1ccccc1C1c2oc(CO)cc(=O)c2Oc2nc3c(c(N)c21)CCCC3 (stereo not drawn): 99
- Nc1c2c(nc3c1C(c1c(Cl)cccc1Cl)c1oc(CO)cc(=O)c1O3)CCCC2 (stereo not drawn): 102
- COc1cccc(C2c3oc(CO)cc(=O)c3Oc3nc4c(c(N)c32)CCCC4)c1 (stereo not drawn): 102
- Nc1c2c(nc3c1C(c1cccc(Cl)c1)c1oc(CO)cc(=O)c1O3)CCCC2 (stereo not drawn): 105
- Nc1c2c(nc3c1C(c1ccccc1F)c1oc(CO)cc(=O)c1O3)CCCC2 (stereo not drawn): 99.2
- COc1ccc(C2c3oc(CO)cc(=O)c3Oc3nc4c(c(N)c32)CCCC4)cc1 (stereo not drawn): 95.9
- Nc1c2c(nc3c1C(c1ccccc1Cl)c1oc(CO)cc(=O)c1O3)CCCC2 (stereo not drawn): 99.4
- Cc1ccc(C2c3oc(CO)cc(=O)c3Oc3nc4c(c(N)c32)CCCC4)cc1 (stereo not drawn): 105

----------
Collected viability at 300 µM values appear next to each entry.
Assay: in vitro
Type: cell-based
Conditions: human, HepG2 cells; 300 µM; percent of cell viability vs DMSO-treated control; read-out: HepG2 cell viability
measured attribute: viability at 300 µM (%)

- Nc1c2c(nc3c1C(c1cccc(Br)c1)c1oc(CO)cc(=O)c1O3)CCCC2 (stereo not drawn): 60.1
- Cc1ccc(C2c3oc(CO)cc(=O)c3Oc3nc4c(c(N)c32)CCCC4)cc1 (stereo not drawn): 108
- COc1ccccc1C1c2oc(CO)cc(=O)c2Oc2nc3c(c(N)c21)CCCC3 (stereo not drawn): 88.5
